- System: UACC-257
- ASSAY TEXT: NCI tumour cell line growth inhibition, 48 h
Active and inactive are the calls of the source. Cut-off read from the data, not from the text of the source: active = GI50 up to about 1.1 µM and inactive = higher. Where a SMILES comes first, the peptide text is derived from it. The star is where a group is joined. Boc = CC(C)(C)OC(=O)*
ATTRIBUTE MEASURED: GI50

INSERT INTO assay_data (compound, attribute_measured, result) VALUES
  ('COC(=O)[C@H](Cc1ccc(O)cc1)NC(=O)[C@H](Cc1ccc(O)cc1)NC(=O)OC(C)(C)C (Boc-Tyr-Tyr-OMe)', 'GI50', '> 100 µM (inactive)'),
  ('CN1CCN(C2=C(Cl)C3(OCCS3)C(F)(F)C2(F)F)CC1 (stereo not given)', 'GI50', '27.2 µM (inactive)'),
  ('C[C@]12CC/C(=N\O)C=C1CC[C@@H]1[C@@H]2CC[C@]2(C)C(=N/O)/C(=C/c3ccc([N+](=O)[O-])cc3)C[C@@H]12', 'GI50', '4.66 µM (inactive)'),
  ('CN(C)c1ccc(C2CC(=O)CC(c3ccc(N(C)C)cc3)C23C(=O)NC(=S)NC3=O)cc1 (stereo not given)', 'GI50', '> 100 µM (inactive)'),
  ('C=Cc1cnc([N+](=O)[O-])n1C', 'GI50', '> 100 µM (inactive)'),
  ('COc1cc(CO)c(CC(=O)NCCCc2ccccc2)cc1OC', 'GI50', '> 100 µM (inactive)'),
  ('C/C(=N\NS(=O)(=O)c1ccc(C)cc1)c1ccc[n+]([O-])n1', 'GI50', '> 100 µM (inactive)'),
  ('C(=C\c1csnn1)/c1cccnc1', 'GI50', '> 100 µM (inactive)'),
  ('CCOC(=O)N/N=C(/N)c1cccc(Br)c1', 'GI50', '> 100 µM (inactive)'),
  ('COc1ccc(OC)c(/C=C/NC=O)c1', 'GI50', '> 100 µM (inactive)');

====

- System: RXF 631
- ASSAY TEXT: NCI tumour cell line growth inhibition, 48 h
Calls of active or inactive are those of the source. No stated cut-off is given here; in the data, active = GI50 up to about 1.1 µM and inactive = higher.
Listed next: entries and their corresponding GI50.
ATTRIBUTE MEASURED: GI50

INSERT INTO assay_data (compound, attribute_measured, result) VALUES
  ('CCC1=CCN(c2ccc(C)cc2)OC1c1ccc(OC)cc1 (stereo unspecified)', 'GI50', '52.4 µM (inactive)'),
  ('COC[n+]1cc2cc(OC)c(OC)cc2c2ccc3cc(OC)c(OC)cc3c21', 'GI50', '> 100 µM (inactive)'),
  ('N#Cc1cccnc1Cl', 'GI50', '> 100 µM (inactive)'),
  ('CN(C)CCNc1ccc2nnn3c4ccccc4c(=O)c1c23', 'GI50', '1.81 µM (inactive)'),
  ('CCOc1ccc(NC(=O)C(=O)CC(=O)c2c(C)[n+]([O-])c3ccccc3[n+]2[O-])cc1', 'GI50', '> 100 µM (inactive)'),
  ('CCCCCCCCCCC(O)CCCCCCC(=O)O (stereo unspecified)', 'GI50', '19.1 µM (inactive)'),
  ('COc1cc(C2C(C(=O)NCc3ccccc3)=C(C)NC(C)=C2C(=O)NCc2ccccc2)ccc1O', 'GI50', '27.3 µM (inactive)'),
  ('O=C1NC2OCC(O)C(O1)C2O (stereo unspecified)', 'GI50', '> 100 µM (inactive)'),
  ('Nc1nc(Cl)cc(NCCCCCCCCCCNc2cc(Cl)nc(N)n2)n1', 'GI50', '5.3 µM (inactive)'),
  ('CC(=O)OC1/C=C(\C)C(OC(C)=O)C/C=C(/C)CCC2C(/C=C/C1=O)C2(C)C (stereo unspecified)', 'GI50', '> 100 µM (inactive)'),
  ('COC1C(OC(=O)/C=C/C=C/C=C/C=C\C(=O)O)CCC2(CO2)C1C1(C)OC1CC=C(C)C (stereo unspecified)', 'GI50', '> 100 µM (inactive)');

====

- Test system: CCRF-CEM
- ASSAY TEXT: NCI tumour cell line growth inhibition, 48 h
Calls of active or inactive are those of the source. Cut-off read from the data, not from the text of the source: active = GI50 up to about 1.1 µM and inactive = higher.
Outcomes: T for active, F for inactive

INSERT INTO results (molecule, target_or_test_system, label_value) VALUES
  ('N#CC1(c2nc3ccccc3o2)C(=O)C(=O)N(C2C3CC4CC(C3)CC2C4)C(=O)C1=O (stereo unspecified)', 'CCRF-CEM', 'F'),
  ('COc1ccc([C@@]23CCC(=O)C[C@@H]2N(C)CC3)cc1OC', 'CCRF-CEM', 'F'),
  ('O=C(NC1=C(Cl)C(=O)c2ccccc2C1=O)c1ccccc1', 'CCRF-CEM', 'F'),
  ('O=C1N=NC(=O)N1c1cc(C(F)(F)F)cc(C(F)(F)F)c1', 'CCRF-CEM', 'F'),
  ('CCOC(=O)c1cccnc1C(OC(C)=O)OC(C)=O', 'CCRF-CEM', 'F'),
  ('Nc1nc(Cl)cc(NCCCCCCCCCCNc2cc(Cl)nc(N)n2)n1', 'CCRF-CEM', 'F'),
  ('CNc1nc(N)cc(O)n1', 'CCRF-CEM', 'F'),
  ('CN(C)C(c1ccccc1)C1COC2Cc3ccccc3C1O2 (stereo unspecified)', 'CCRF-CEM', 'F'),
  ('CCOC(=O)CC1COc2ccc3c(c21)OCO3 (stereo unspecified)', 'CCRF-CEM', 'F'),
  ('O=C1c2ccccc2C(=O)N1CC1(C(=O)O)NCCS1(=O)=O (stereo unspecified)', 'CCRF-CEM', 'F'),
  ('O=C(O)C1(Cc2ccc3c(c2)CCC3)Cc2cc3c(cc2C1)CCC3', 'CCRF-CEM', 'F'),
  ('CCCc1cc(=O)oc2c3c(c4c(c12)OC(C)(C)CC4)O[C@@H](C)[C@H](C)[C@H]3O', 'CCRF-CEM', 'F'),
  ('Cc1ccc2nc3ccccc3c(C3C4C(=O)N(c5ccc(F)cc5)C(=O)C4ON3C(C(N)=O)c3ccccc3)c2c1 (stereo unspecified)', 'CCRF-CEM', 'F'),
  ('O=C(/C=C/c1ccccc1O)c1ccc([N+](=O)[O-])cc1', 'CCRF-CEM', 'F'),
  ('COc1ccc(OCC(C)(C)O)cc1', 'CCRF-CEM', 'F'),
  ('CCN(CC)c1ccc(/C=C2/C[N+](C)(C)C/C(=C/c3ccc(N(CC)CC)cc3)C2=O)cc1', 'CCRF-CEM', 'T'),
  ('O=C(OCc1ccccc1)N1N=NC2C3CC(OCc4ccccc4)(OCc4ccccc4)C(O3)C21 (stereo unspecified)', 'CCRF-CEM', 'F'),
  ('COC(=O)/C(=N/Nc1cccc(Cl)c1)C(C(=O)C(=O)Nc1cccc(Cl)c1C)c1nc2ccccc2nc1C (stereo unspecified)', 'CCRF-CEM', 'F'),
  ('C/C=C/C1=C(Cl)C(=O)[C@@H](Cl)[C@@]1(O)C(=O)OC [(+)-CRYPTOSPORIPSIN]', 'CCRF-CEM', 'T'),
  ('O=C(N[C@@H]1C=CCC[C@@H]1c1ccccc1)OCc1ccccc1', 'CCRF-CEM', 'F'),
  ('C[C@H]1CCC/C=C/[C@@H]2C[C@H](OC3OC(CO)C(O)C(O)C3O)C[C@H]2[C@H](O)/C=C/C(=O)O1 (stereo partly specified)', 'CCRF-CEM', 'F');

====

- Tested on: IGROV-1
- ASSAY TEXT: NCI tumour cell line growth inhibition, 48 h
Calls of active or inactive are those of the source. Cut-off read from the data, not from the text of the source: active = GI50 up to about 1.1 µM and inactive = higher.
Classes used: active, inactive

INSERT INTO results (compound, label_value) VALUES
  ('COc1ccc(C(=O)N2CCN(c3ccc4c(c3)OCC(=O)N4)CC2)cc1OC', 'inactive'),
  ('Cc1c(/C=N/N=C/c2[nH]c(C(=O)OC(C)(C)C)c(C)c2C)[nH]c(C(=O)OC(C)(C)C)c1C', 'inactive'),
  ('COc1ccc(/C=N/NC(=O)CSc2nc(-c3ccccc3)c(-c3ccccc3)[nH]2)cc1OC', 'inactive'),
  ('CN(Cc1cnc2nc(N)nc(N)c2n1)c1ccc(C(=O)N[C@@H](CCS(=O)(=O)O)C(=O)O)cc1', 'active'),
  ('C#CCN(Cc1ccc2nc(-c3ccccc3)c(Cl)nc2c1)c1cc(OC)c(OC)c(OC)c1', 'inactive'),
  ('COC(=O)CSc1nnc(-c2ccccc2)[nH]1', 'inactive'),
  ('O/N=C\C(=N/O)Nc1ccc(Cc2ccc(NC(/C=N\O)=N/O)cc2)cc1', 'inactive'),
  ('CCOC(=O)C(=O)C=P(c1ccccc1)(c1ccccc1)c1ccccc1', 'inactive'),
  ('O=P1(O)c2ccccc2CS(=O)(=O)Cc2ccccc21', 'inactive'),
  ('COC1C(OC(=O)/C=C/C=C/C=C/C=C\C(=O)O)CCC2(CO2)C1C1(C)OC1CC=C(C)C (stereo not given)', 'inactive');
